Test system: A549
Experiment: Antiproliferative activity against human A549 cells after 5 days by EZMTT reagent-based assay
Type: functional, cell-based
Conditions: A549, 120 h
Kindly state pIC50 for each of the entries shown.
One number for each entry, as −log10 of the molar value.

Before answering, review these 4 worked examples.
given_smiles | pIC50
COc1ccc2c(c1)c(CC(=O)Nc1nnc(CCCCc3ccc(NC(=O)Cc4cccc(OC(F)(F)F)c4)nn3)[se]1)cn2C | 8.00
Cn1cc(CC(=O)Nc2nnc(CCCCc3ccc(NC(=O)Cc4cccc(OC(F)(F)F)c4)nn3)[se]2)c2ccccc21 | 7.77
O=C(Cc1ccccc1)Nc1nnc(CCSCCc2nnc(NC(=O)Cc3ccccc3)[se]2)[se]1 | 6.64
Cn1cc(CC(=O)Nc2nnc(CCSCCc3nnc(NC(=O)Cc4cn(C)c5ccccc45)s3)s2)c2ccccc21 | 5.54

Let us examine a further case.
stdin: Field request: pIC50 | item: `O=C(Cc1cccc(OC(F)(F)F)c1)Nc1ccc(CCCCc2nnc(NC(=O)Cc3ccccn3)[se]2)nn1`
stdout: 7.77
